- Test system: Saccharomyces cerevisiae
- ASSAY_EXPLANATION: protein stability index of tFT-peptide fusion (C-terminal peptide) (PSI (0-1 scale)); higher = more stable (slower turnover)
- TEST_CONDITIONS: genetic background: wild type; temperature: 30 C
What protein stability index was measured for each of the following?
The response must contain the number and no unit.

Query (sequence): LTVLCWVLCYLL ; field requested: protein stability index
0.527

Which protein stability index is listed for CYTGYMYKLLVG ?
0.346

Field request: protein stability index | item: VLLLLYGMFRGR
0.59

// returns reported protein stability index for input IPLGGPTPSNYD
0.721

# protein stability index lookup, item PAASRPPSPSLL
0.665

// lookup protein stability index for AFLPLYFLEGVL
0.702

# lookup: protein stability index of EQKYHTCEDAQK
0.685

Suppose we examine the sequence PSPPQLPAAPSP ; what protein stability index value has been reported?
0.779

Fill blank: measured protein stability index of the sequence AKSRQRKNGRTG is ____.
0.708

Fill in the blank: the reported protein stability index of VPGPSPPRFTQR is ____.
0.559

Item under review: PLPLPLPSRPRP . Reported protein stability index?
0.653

For AIVWGVGCGSVG , what is its reported protein stability index?
0.738

Which protein stability index is listed for DLRFLQFGFIPW ?
0.752

Which protein stability index is reported for this sequence? VRRGHEGCGLRY
0.717

Look at this sequence and give its reported protein stability index. LPVPPPPPLPET
0.702

Reported protein stability index for SLLPRLTPHSPI : what is it?
0.75

Item SSLPALRSPCHP has what recorded protein stability index?
0.738

Which protein stability index reading was recorded for the sequence LASPDPSPLVVP ?
0.678

Suppose we examine the sequence WRAFVFYHHFLD ; what protein stability index value has been reported?
0.441

* * *

Can you tell me protein stability index for the items I'm about to list?
- System: Saccharomyces cerevisiae
- ASSAY_EXPLANATION: protein stability index of tFT-peptide fusion (C-terminal peptide) (PSI (0-1 scale)); higher = more stable (slower turnover)
- TEST_CONDITIONS: genetic background: wild type; temperature: 30 C
Keep the answer to the number alone.

For the record SHLLPPPLTPAS , what value of protein stability index is listed for Saccharomyces cerevisiae?
0.673

Requested read-out protein stability index, target or system Saccharomyces cerevisiae, entry FCRLCYLLLFCC
0.254

For Saccharomyces cerevisiae, provide protein stability index of CWDNTLKTMRQM please.
0.228

Tell me reported protein stability index for GAAVWGPLCVWL , tested with Saccharomyces cerevisiae.
0.653

Form field: protein stability index recorded for PCLSRFPGSPFL with Saccharomyces cerevisiae (enter value)
0.69

Fill in the recorded protein stability index for this sequence, with Saccharomyces cerevisiae as test system: SRGGKMRPGGGG
0.711

For Saccharomyces cerevisiae, provide protein stability index of PSAPPPSPLGRT please.
0.738

Notebook entry, Saccharomyces cerevisiae assay: protein stability index of VWSDGCWVDWLL = ?
0.733

Field: protein stability index (Saccharomyces cerevisiae). Entry: PPLSLPLCLSPL
0.684

Item ASSPLFLPAIQP with Saccharomyces cerevisiae - protein stability index?
0.63

Value wanted: protein stability index (Saccharomyces cerevisiae) of entry LPPVPRAYFSDT
0.714

What is its protein stability index for Saccharomyces cerevisiae? Entry: EWSGWVGKCGRG
0.664

Any idea what protein stability index came out for FHPVLPMSFRHV on Saccharomyces cerevisiae?
0.666

Return protein stability index measured with Saccharomyces cerevisiae given this sequence: EKIKKQITRTRR
0.665

Provide value of protein stability index for this record tested with Saccharomyces cerevisiae: GLSLVCWIVVLG
0.306

Tell me reported protein stability index for SSLPPLRPFSPS , tested with Saccharomyces cerevisiae.
0.726

Form entry - test system: Saccharomyces cerevisiae; read-out: protein stability index; sequence: SLWVSLSCFRVV
0.588

GET /values?readout=protein stability index&system=Saccharomyces cerevisiae&item= TPSAPPPTHPYP
0.684

Record lookup: for Saccharomyces cerevisiae, what protein stability index belongs to KPRLARLSLSLL ?
0.784

Param readout= protein stability index; system= Saccharomyces cerevisiae; entry= FSAVRIQASLRW ; returns value.
0.629

Item EVGFPGRSWGAG with Saccharomyces cerevisiae - protein stability index?
0.689

Notebook entry, Saccharomyces cerevisiae assay: protein stability index of TRKFATPRITVV = ?
0.694

# returns recorded protein stability index (system: Saccharomyces cerevisiae) for VGLTGFQHTEWG
0.753

Request: protein stability index, test system Saccharomyces cerevisiae, entry PFGTFFFPSFLL
0.683

Given the entry PPAICSFLSPPF , what protein stability index was observed with Saccharomyces cerevisiae?
0.655

Report protein stability index for STILSAEKTKLG tested on Saccharomyces cerevisiae.
0.707

Can you look up protein stability index on Saccharomyces cerevisiae for SRPSSFRLRFLH ?
0.393

Requested read-out protein stability index, target or system Saccharomyces cerevisiae, entry PPHPPPRLPPPP
0.724

Item KGQPTTRVKEEW with Saccharomyces cerevisiae - protein stability index?
0.654

Form field: protein stability index recorded for IEEQQKEKNRPK with Saccharomyces cerevisiae (enter value)
0.712

Please provide the recorded protein stability index for PPSPPPARPSPA , tested on Saccharomyces cerevisiae.
0.667

Look up protein stability index with Saccharomyces cerevisiae for this sequence: KGKNTEKEEEEK
0.685

Lab note: need protein stability index with Saccharomyces cerevisiae for entry FFIMFFDFWGYF , please look it up.
0.447

API: value(readout=protein stability index, system=Saccharomyces cerevisiae) for record GSRSGPARTTGR
0.668

// map VHSMSRTFARPV to recorded protein stability index (system: Saccharomyces cerevisiae)
0.683

Find protein stability index (Saccharomyces cerevisiae) for the entry DRSTIKIAIHRQ
0.656

Provide value of protein stability index for this record tested with Saccharomyces cerevisiae: GRRVRAPADFKS
0.587

Enter reported protein stability index observed with Saccharomyces cerevisiae for VGVGDGLIRRSS
0.734

Give protein stability index (Saccharomyces cerevisiae) of the following sequence: LNALSHCRAICS
0.379

Any idea what protein stability index came out for PLKTDSVPEFTA on Saccharomyces cerevisiae?
0.581

Could you share what protein stability index was measured for RALCISCYVALR , tested on Saccharomyces cerevisiae?
0.585

Please provide the recorded protein stability index for WGGGSGRRIGCR , tested on Saccharomyces cerevisiae.
0.706

Kindly state the measured protein stability index obtained for ILSRAGMITHCR with Saccharomyces cerevisiae.
0.642

Value wanted: protein stability index (Saccharomyces cerevisiae) of entry PLTSNTSPPPMT
0.618

Field: protein stability index (Saccharomyces cerevisiae). Entry: LQFAQLLDISIT
0.696

// fetch Saccharomyces cerevisiae protein stability index for SRGKMTIVSNQI
0.574

Notebook entry, Saccharomyces cerevisiae assay: protein stability index of PPLPPAPPPPPH = ?
0.697

Return protein stability index measured with Saccharomyces cerevisiae given this sequence: LLVCVVDREPPI
0.685

Record lookup: for Saccharomyces cerevisiae, what protein stability index belongs to GGHSVRCGGGAL ?
0.758

Param readout= protein stability index; system= Saccharomyces cerevisiae; entry= GVRSGAGGQGVG ; returns value.
0.708

Given the entry WRYFLGKGRMSF , what protein stability index was observed with Saccharomyces cerevisiae?
0.742

I'm curious: which protein stability index was measured for RVRCPVVSGGRG tested on Saccharomyces cerevisiae?
0.707

Given the entry PQVLSPPLSTSR , what protein stability index was observed with Saccharomyces cerevisiae?
0.728

Which measured protein stability index belongs to HRYRAFPLASSR , tested on Saccharomyces cerevisiae?
0.618

Provide value of protein stability index for this record tested with Saccharomyces cerevisiae: VSGVLRSMVRLQ
0.453

Enter reported protein stability index observed with Saccharomyces cerevisiae for VSRAVCLWRRLL
0.0882

Lookup: protein stability index / Saccharomyces cerevisiae / APPPLPLPPPAP
0.705

Param readout= protein stability index; system= Saccharomyces cerevisiae; entry= PSPPHLCPSPFA ; returns value.
0.752

protein stability index of RLSFSVPPCLDI on Saccharomyces cerevisiae?
0.691

Given the entry ASVTSKSNCSGI , what protein stability index was observed with Saccharomyces cerevisiae?
0.663

Missing value: protein stability index, Saccharomyces cerevisiae, entry WFVFVFCSPRSS . Fill in?
0.5

Entry ESRVTNKQSYQA , system Saccharomyces cerevisiae: what protein stability index was measured?
0.678

What value of protein stability index on Saccharomyces cerevisiae does ARLGKASYSVFS have?
0.729

Lab request: please report protein stability index under test system Saccharomyces cerevisiae for TRMRWCGSGVKN
0.809

Observed protein stability index on Saccharomyces cerevisiae for PPLCPPLQPPLI , please.
0.639

Item: DINNDQKCTLMK Test system: Saccharomyces cerevisiae Read-out: protein stability index Value: ?
0.71

Can you look up protein stability index on Saccharomyces cerevisiae for ARIECLIFPGCK ?
0.626

Report protein stability index for LSCQWNSDSLGV tested on Saccharomyces cerevisiae.
0.644

For the record IPCLPHPSLPPQ , what value of protein stability index is listed for Saccharomyces cerevisiae?
0.757

Form: Entry = LPPLLGPSPCPP | System = Saccharomyces cerevisiae | protein stability index = ____
0.604

Value wanted: protein stability index (Saccharomyces cerevisiae) of entry TTTRSDALPRGG
0.713

Value wanted: protein stability index (Saccharomyces cerevisiae) of entry GGPVDGSVDRGR
0.627

Could you share what protein stability index was measured for FPRPLPPLSPLL , tested on Saccharomyces cerevisiae?
0.716

Hello, I am looking for reported protein stability index with Saccharomyces cerevisiae for SQLAGPPLPPPT . Could you help?
0.751

Identify the measured protein stability index of GVVWMSGGGWWG for Saccharomyces cerevisiae.
0.761

Checklist item: protein stability index tested on Saccharomyces cerevisiae, entry QYGARNHPPTTK , value?
0.742

Request - read-out protein stability index | tested on Saccharomyces cerevisiae | sequence LAEHIFLVLDHG
0.453

State its protein stability index on Saccharomyces cerevisiae: LLSPPPAPRPPH
0.696

Under Saccharomyces cerevisiae: protein stability index value of TVPLPPPPFLDS ?
0.772

Item HALCLSVYVSAH with Saccharomyces cerevisiae - protein stability index?
0.281

// fetch Saccharomyces cerevisiae protein stability index for RRLMMPSGQGLT
0.702

Test system Saccharomyces cerevisiae; read-out protein stability index; what value for LSASHVMSLTNL ?;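 also: PSI is a weighted mean of sequencing reads over stability bins, variants kept only with over 10 reads, mCherry proximal and sfGFP distal, peptide attached via GGGS linker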
0.698
